# Protocol: chemical genetic growth profiling, strain panel (AID 1159580);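 also: tested at 20 µM; growth read once vehicle control cultures reached saturation at 30 °C; 1 = growth at the plate median or of vehicle wells; lower values mean less growth of the strain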
# Run parameters: S. cerevisiae deletion strains, growth OD, locus YDR052C, strain DBF4, hits give low values
Hit rate of the full screen: of about 5,500 compounds, about 2,000 (36%) were called active. Inconclusive results (about 18%) are left out. This is one part of the list.
Reported normalized growth is given for each of the following compounds.

Compound: CC(NC(=S)Nc1ccc(Oc2ccc(Cl)cc2)cc1)c1ccccc1 (stereo unspecified)
normalized growth: 0.955
--
Compound: CCC1(c2ccccc2)OC(c2cc(Cl)cc(Cl)c2O)Nc2ccccc21 (stereo unspecified)
normalized growth: 0.976
--
Compound: Oc1ccc(-n2nnnc2SCc2ccc(OC(F)(F)F)cc2)cc1
normalized growth: 0.984
--
Compound: O=S(=O)(Nc1ccc(-n2nc(C(F)(F)F)cc2-c2cccs2)cc1)c1ccc(F)cc1
normalized growth: 0.98
--
Compound: CC(Oc1ccc(Cl)cc1Cl)C(=O)NNC(=S)Nc1ccccc1 (stereo unspecified)
normalized growth: 0.991
--
Compound: N#C/C(=C\c1ccc(C(F)(F)F)cc1)c1ccc(O)cc1
normalized growth: 0.988
--
Compound: O=C(Nc1ccc(OC(F)(F)F)cc1)Nc1cncc(C(F)(F)F)c1
normalized growth: 0.989
--
Compound: CSc1nc(Sc2n[nH]c(-c3ccccc3)n2)cc(Sc2n[nH]c(-c3ccccc3)n2)n1
normalized growth: 0.995
--
Compound: O=S(=O)(Nc1cc(-c2cccs2)nn1-c1ccc(I)cc1)c1cccc(F)c1
normalized growth: 0.983
--
Compound: CCCCc1ccc(N=CNO)c(C)c1
normalized growth: 0.995
--
Compound: CCCCCc1ccc(-c2nc(SCC(C)=O)n[nH]2)cc1
normalized growth: 0.97

###

# Protocol: chemical genetic growth profiling, strain panel (AID 1159580);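 also: tested at 20 µM; growth read once vehicle control cultures reached saturation at 30 °C; 1 = growth at the plate median or of vehicle wells; lower values mean less growth of the strain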
# Run parameters: S. cerevisiae deletion strains, growth OD, strain NNK1
Among all 5,500 compounds or so, about 2,000 (36%) were called active. Not shown: some 18% with an inconclusive outcome. No stated cut-off is given here; in the data, active means normalized growth mostly below about 0.91 (no sharp cut-off); inconclusive means no clear call, values can overlap the other calls; inactive means mostly above about 0.92. The list shows a part of the results.
Classes used: active, inactive

Compound: O=C(c1ccc(Cl)cc1)N1CCN(c2ccc(C(F)(F)F)cn2)CC1
Class assignment: inactive

Compound: N#Cc1c(N)sc2c1CCc1ccccc1-2
Class assignment: inactive

Compound: NNC(=O)COc1ccc(C2SCCS2)cc1
Class assignment: active

Compound: CCOC(=O)C(NC(C)=O)(Nc1ccc(F)c(Cl)c1)C(F)(F)F (stereo not drawn)
Class assignment: inactive

Compound: CC(NC(=S)Nc1ccc(Oc2ccc(Cl)cc2)cc1)c1ccccc1 (stereo not drawn)
Class assignment: inactive

Compound: O=C(Oc1ccc(C2SCCS2)cc1)c1cccs1
Class assignment: inactive

Compound: FC(F)(F)c1ccc(C2Sc3ccccc3N=C3c4ccccc4CC32)cc1 (stereo not drawn)
Class assignment: inactive

Compound: CC1CCc2c(sc3ncnc(Sc4ccccc4)c23)C1 (stereo not drawn)
Class assignment: inactive

Compound: CCOC(=O)C(O)(c1ccc(NC(=O)Nc2ccc(Cl)cc2)cc1)C(F)(F)F (stereo not drawn)
Class assignment: inactive

Compound: N#CC(C#N)=NNc1cc(C(F)(F)F)ccc1OCC(F)(F)F
Class assignment: inactive

Compound: O=C(N/N=C\c1cc(Cl)cc(Cl)c1O)c1ccccc1Oc1ccccc1
Class assignment: inactive

Compound: O=S(=O)(Nc1cc(-c2cccs2)nn1-c1ccc(I)cc1)c1cccc(F)c1
Class assignment: inactive

Compound: O=C1OC(Nc2ccccc2SCc2ccccc2Cl)c2ccccc21 (stereo not drawn)
Class assignment: inactive

Compound: CSc1nc(Sc2n[nH]c(-c3ccccc3)n2)cc(Sc2n[nH]c(-c3ccccc3)n2)n1
Class assignment: inactive

Compound: CCCCc1ccc(N=CNO)c(C)c1
Class assignment: inactive

Compound: Nc1ccccc1C(=O)N/N=C\c1cc(Cl)cc(Cl)c1O
Class assignment: inactive

Compound: N#C/C(=N/Nc1ccc(C(F)(F)F)cc1)C(=O)C1CC1
Class assignment: inactive

Compound: O=C(NCc1ccc(F)c(Cl)c1)Nc1csc([N+](=O)[O-])c1
Class assignment: inactive

Compound: CCCCCc1ccc(-c2nc(SCC(C)=O)n[nH]2)cc1
Class assignment: inactive

Compound: O=C(Nc1ccc(Cl)cc1)c1csc([N+](=O)[O-])c1
Class assignment: inactive

Compound: Cc1c(NCN2C(=O)CCC2=O)cc2c(c1[N+](=O)[O-])C(C)(C)CC2(C)C
Class assignment: inactive

Compound: C(=NC(N=Cc1ccccc1)c1ccccc1)c1ccccc1 (stereo not drawn)
Class assignment: inactive

Compound: Fc1ccc(Nc2nc(-c3ccc(F)c(F)c3)cs2)c(F)c1
Class assignment: active

Compound: N#C/C(=C\c1ccc(C(F)(F)F)cc1)c1ccc(O)cc1
Class assignment: inactive

Compound: COC(=O)c1ccc(Oc2c(C(F)(F)F)oc3cc(O)ccc3c2=O)cc1
Class assignment: inactive

Compound: Nc1ccc(N2CCN(c3ccc(C(F)(F)F)cn3)CC2)nc1
Class assignment: inactive

Compound: Cc1nc([N+](=O)[O-])cn1CC(=O)c1ccc(Cl)cc1
Class assignment: inactive

Compound: Cc1c(Cl)cccc1N=C1SCC(=O)N1Cc1ccco1
Class assignment: inactive

Compound: N/C(=N/OC(=O)c1ccccc1Cl)c1cccc(CS(=O)(=O)c2ccc(Cl)cc2)c1
Class assignment: inactive

Compound: Cc1nc(C(F)(F)F)ccc1C(=O)Sc1nnc(-c2ccc(C(F)(F)F)nc2C)o1
Class assignment: inactive

Compound: O=C(NNc1c(Cl)cccc1Cl)c1ccc([N+](=O)[O-])o1
Class assignment: inactive

Compound: N#C/C(=C\C=C\c1ccccc1)c1nc2ccccc2[nH]1
Class assignment: inactive

Compound: Cc1nn(Cc2cccc(C(=O)O/N=C(/N)c3ccc(Cl)cc3)c2)c(C)c1Br
Class assignment: inactive

Compound: O=C(OCc1ccc(Oc2ccc(Cl)cc2Cl)c([N+](=O)[O-])c1)c1ccc([N+](=O)[O-])o1
Class assignment: inactive

Compound: Cc1oc(-c2ccc(Cl)cc2)cc1C(=O)N1CCN(c2ccc(C(F)(F)F)cn2)CC1
Class assignment: inactive

Compound: CC(=O)Oc1ccc2c(=O)c(Oc3ccc(Cl)cc3)c(C)oc2c1
Class assignment: inactive

Compound: CCOC(=O)C1C(c2ccc(Br)cc2)C(C(=O)OCC)C(O)(C(F)(F)F)NC1(O)C(F)(F)F (stereo not drawn)
Class assignment: inactive

Compound: Cc1ccc(C(=O)Nc2ccc3ccccc3n2)cc1
Class assignment: inactive
